biological target: panel of 442 kinases (Homo sapiens); construct: purchased Ambit Biosciences (scanMAXX KINOMEscan); assay: biochemical; assay type: binding; conditions: kinase VRK2; 1 µM; read-out: VRK2 (% of control at 1 µM)
READOUT NAME: remaining activity at 1 µM (%)
Answers are plain numbers, in %.

Some entries whose results are on file:
SMILES: Cn1c(=O)n(-c2ccc(C(C)(C)C#N)cc2)c2c3cc(-c4cnc5ccccc5c4)ccc3ncc21
UNIT ABBREV: %
remaining activity at 1 µM: 83
--
SMILES: COc1ncc(-c2ccc3nccc(-c4ccnnc4)c3c2)cc1NS(=O)(=O)c1ccc(F)cc1F
UNIT ABBREV: %
remaining activity at 1 µM: 100
--
SMILES: FC(F)c1nc2ccccc2n1-c1nc(N2CCOCC2)nc(N2CCOCC2)n1
UNIT ABBREV: %
remaining activity at 1 µM: 100

We now examine a further compound.
Q) If you can, please state the reported remaining activity at 1 µM value of `Nc1cc(C(F)(F)F)c(-c2cc(N3CCOCC3)nc(N3CCOCC3)n2)cn1` .
A) 83

---

molecular target: panel of 442 kinases (Homo sapiens, UniProt Q8WXR4); construct: purchased Ambit Biosciences (scanMAXX KINOMEscan); assay: biochemical; assay type: binding; settings: kinase MYO3B; 1 µM; read-out: % of control at 1 µM
Sequence (Q8WXR4 whole entry): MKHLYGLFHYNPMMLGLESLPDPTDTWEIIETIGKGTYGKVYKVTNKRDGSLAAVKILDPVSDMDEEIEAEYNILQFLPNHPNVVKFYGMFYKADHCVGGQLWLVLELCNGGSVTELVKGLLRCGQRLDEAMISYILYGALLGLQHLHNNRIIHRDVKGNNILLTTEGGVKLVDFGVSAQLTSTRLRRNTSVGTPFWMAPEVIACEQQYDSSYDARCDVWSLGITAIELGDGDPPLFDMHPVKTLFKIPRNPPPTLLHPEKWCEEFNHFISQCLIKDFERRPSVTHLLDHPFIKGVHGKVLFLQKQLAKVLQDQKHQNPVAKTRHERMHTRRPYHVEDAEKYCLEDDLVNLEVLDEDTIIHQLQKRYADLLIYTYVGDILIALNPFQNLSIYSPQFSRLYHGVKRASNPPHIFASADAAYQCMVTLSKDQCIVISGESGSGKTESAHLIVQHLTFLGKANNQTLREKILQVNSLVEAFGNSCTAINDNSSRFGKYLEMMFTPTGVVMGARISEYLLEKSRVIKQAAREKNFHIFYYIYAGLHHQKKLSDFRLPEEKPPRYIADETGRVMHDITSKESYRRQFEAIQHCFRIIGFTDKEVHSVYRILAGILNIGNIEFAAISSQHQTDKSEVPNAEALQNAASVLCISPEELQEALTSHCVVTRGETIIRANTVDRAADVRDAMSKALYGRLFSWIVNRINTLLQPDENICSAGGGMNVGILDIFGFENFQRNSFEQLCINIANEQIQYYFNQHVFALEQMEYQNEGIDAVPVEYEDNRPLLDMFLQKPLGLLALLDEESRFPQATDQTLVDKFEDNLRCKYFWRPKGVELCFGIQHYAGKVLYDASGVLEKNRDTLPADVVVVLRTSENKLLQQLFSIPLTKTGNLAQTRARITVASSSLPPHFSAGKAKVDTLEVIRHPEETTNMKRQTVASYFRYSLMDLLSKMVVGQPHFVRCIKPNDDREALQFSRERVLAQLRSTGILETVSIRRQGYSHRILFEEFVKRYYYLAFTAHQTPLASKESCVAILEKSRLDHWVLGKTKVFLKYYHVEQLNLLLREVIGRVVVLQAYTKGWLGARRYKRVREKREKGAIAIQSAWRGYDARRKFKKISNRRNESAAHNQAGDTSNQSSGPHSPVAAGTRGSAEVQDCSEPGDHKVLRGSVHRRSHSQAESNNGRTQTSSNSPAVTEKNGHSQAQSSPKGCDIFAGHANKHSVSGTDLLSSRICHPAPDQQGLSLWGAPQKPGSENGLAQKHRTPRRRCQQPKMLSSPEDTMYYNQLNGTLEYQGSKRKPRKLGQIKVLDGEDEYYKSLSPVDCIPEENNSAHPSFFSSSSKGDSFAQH
Consider the following molecules; for each one, report its remaining activity at 1 µM.
Numbers only, in %.

Some entries whose results are on file:
SMILES: FC(F)c1nc2ccccc2n1-c1nc(N2CCOCC2)nc(N2CCOCC2)n1
remaining activity at 1 µM, %: 64
//
SMILES: COc1ncc(-c2ccc3nccc(-c4ccnnc4)c3c2)cc1NS(=O)(=O)c1ccc(F)cc1F
remaining activity at 1 µM, %: 91

I'm hoping you can list remaining activity at 1 µM for every molecule here, please.
1. Cn1c(=O)n(-c2ccc(C(C)(C)C#N)cc2)c2c3cc(-c4cnc5ccccc5c4)ccc3ncc21
2. Nc1cc(C(F)(F)F)c(-c2cc(N3CCOCC3)nc(N3CCOCC3)n2)cn1

A)
81
51

---

target: panel of 442 kinases (Homo sapiens, UniProt Q15303); construct: purchased Ambit Biosciences (scanMAXX KINOMEscan); test: biochemical; format: binding; conditions: ERBB4; 1 µM; read-out: % of control at 1 µM
Sequence (Q15303 26-1308): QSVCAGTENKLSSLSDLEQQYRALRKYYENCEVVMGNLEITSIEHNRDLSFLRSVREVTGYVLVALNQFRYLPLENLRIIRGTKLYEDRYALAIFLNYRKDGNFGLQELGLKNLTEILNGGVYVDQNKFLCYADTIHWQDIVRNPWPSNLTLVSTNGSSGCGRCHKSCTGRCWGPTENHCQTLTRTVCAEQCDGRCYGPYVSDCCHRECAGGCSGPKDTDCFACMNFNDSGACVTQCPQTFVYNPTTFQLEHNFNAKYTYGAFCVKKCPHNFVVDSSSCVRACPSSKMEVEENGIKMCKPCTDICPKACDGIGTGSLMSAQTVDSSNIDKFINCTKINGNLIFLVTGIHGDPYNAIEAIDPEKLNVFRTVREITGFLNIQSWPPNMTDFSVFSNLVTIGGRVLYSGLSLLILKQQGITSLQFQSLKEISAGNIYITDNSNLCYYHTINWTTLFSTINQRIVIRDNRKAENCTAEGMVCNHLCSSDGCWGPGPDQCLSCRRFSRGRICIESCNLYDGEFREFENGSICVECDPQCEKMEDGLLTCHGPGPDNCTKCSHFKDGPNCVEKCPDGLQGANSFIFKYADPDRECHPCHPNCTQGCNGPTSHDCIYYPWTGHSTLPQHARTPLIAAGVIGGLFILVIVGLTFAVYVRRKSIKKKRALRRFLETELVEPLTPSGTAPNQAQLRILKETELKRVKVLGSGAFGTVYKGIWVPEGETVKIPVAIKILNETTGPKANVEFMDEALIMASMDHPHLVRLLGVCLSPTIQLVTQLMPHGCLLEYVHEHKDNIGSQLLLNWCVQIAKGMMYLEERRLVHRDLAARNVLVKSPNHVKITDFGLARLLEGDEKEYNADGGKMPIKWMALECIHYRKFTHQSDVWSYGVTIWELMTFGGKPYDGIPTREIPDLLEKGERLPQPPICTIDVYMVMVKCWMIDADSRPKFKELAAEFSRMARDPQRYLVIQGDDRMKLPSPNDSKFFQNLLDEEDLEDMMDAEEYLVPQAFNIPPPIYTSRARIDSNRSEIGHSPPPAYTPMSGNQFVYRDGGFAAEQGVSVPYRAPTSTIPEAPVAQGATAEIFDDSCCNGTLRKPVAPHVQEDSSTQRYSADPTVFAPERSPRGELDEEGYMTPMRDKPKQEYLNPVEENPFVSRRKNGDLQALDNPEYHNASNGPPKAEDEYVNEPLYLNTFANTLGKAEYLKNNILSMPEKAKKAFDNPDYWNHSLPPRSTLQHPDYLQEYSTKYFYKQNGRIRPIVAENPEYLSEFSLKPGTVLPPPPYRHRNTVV
READOUT NAME: remaining activity at 1 µM (%)
Answers are plain numbers, in %.

SMILES: Cn1c(=O)n(-c2ccc(C(C)(C)C#N)cc2)c2c3cc(-c4cnc5ccccc5c4)ccc3ncc21
UNIT ABBREV: %
remaining activity at 1 µM: 100

SMILES: Nc1cc(C(F)(F)F)c(-c2cc(N3CCOCC3)nc(N3CCOCC3)n2)cn1
UNIT ABBREV: %
remaining activity at 1 µM: 69

SMILES: FC(F)c1nc2ccccc2n1-c1nc(N2CCOCC2)nc(N2CCOCC2)n1
UNIT ABBREV: %
remaining activity at 1 µM: 100

Q) I'm curious: which remaining activity at 1 µM was measured for `COc1ncc(-c2ccc3nccc(-c4ccnnc4)c3c2)cc1NS(=O)(=O)c1ccc(F)cc1F` tested on panel of 442 kinases (Homo sapiens, UniProt Q15303)?
A) 100

---

molecular target: panel of 442 kinases (Homo sapiens); construct: purchased Ambit Biosciences (scanMAXX KINOMEscan); experiment: biochemical; assay type: binding; conditions: kinase MAK; 1 µM; read-out: % of control at 1 µM
READOUT NAME: remaining activity at 1 µM (%)
Numbers only, in %.

Some entries whose results are on file:
MOLECULE: Nc1cc(C(F)(F)F)c(-c2cc(N3CCOCC3)nc(N3CCOCC3)n2)cn1 [Buparlisib]
UNIT ABBREV: %
remaining activity at 1 µM: 98
--
MOLECULE: FC(F)c1nc2ccccc2n1-c1nc(N2CCOCC2)nc(N2CCOCC2)n1 [ZSTK474]
UNIT ABBREV: %
remaining activity at 1 µM: 87

I'm hoping you can list remaining activity at 1 µM for every molecule here, please.
1. Cn1c(=O)n(-c2ccc(C(C)(C)C#N)cc2)c2c3cc(-c4cnc5ccccc5c4)ccc3ncc21 [Dactolisib]
2. COc1ncc(-c2ccc3nccc(-c4ccnnc4)c3c2)cc1NS(=O)(=O)c1ccc(F)cc1F [Omipalisib]

A)
1: 64; 2: 71

---

target: panel of 442 kinases (Homo sapiens, UniProt P14616); construct: purchased Ambit Biosciences (scanMAXX KINOMEscan); experiment: biochemical; assay type: binding; conditions: kinase INSRR; 1 µM; read-out: % of control at 1 µM
Sequence (P14616 27-1297): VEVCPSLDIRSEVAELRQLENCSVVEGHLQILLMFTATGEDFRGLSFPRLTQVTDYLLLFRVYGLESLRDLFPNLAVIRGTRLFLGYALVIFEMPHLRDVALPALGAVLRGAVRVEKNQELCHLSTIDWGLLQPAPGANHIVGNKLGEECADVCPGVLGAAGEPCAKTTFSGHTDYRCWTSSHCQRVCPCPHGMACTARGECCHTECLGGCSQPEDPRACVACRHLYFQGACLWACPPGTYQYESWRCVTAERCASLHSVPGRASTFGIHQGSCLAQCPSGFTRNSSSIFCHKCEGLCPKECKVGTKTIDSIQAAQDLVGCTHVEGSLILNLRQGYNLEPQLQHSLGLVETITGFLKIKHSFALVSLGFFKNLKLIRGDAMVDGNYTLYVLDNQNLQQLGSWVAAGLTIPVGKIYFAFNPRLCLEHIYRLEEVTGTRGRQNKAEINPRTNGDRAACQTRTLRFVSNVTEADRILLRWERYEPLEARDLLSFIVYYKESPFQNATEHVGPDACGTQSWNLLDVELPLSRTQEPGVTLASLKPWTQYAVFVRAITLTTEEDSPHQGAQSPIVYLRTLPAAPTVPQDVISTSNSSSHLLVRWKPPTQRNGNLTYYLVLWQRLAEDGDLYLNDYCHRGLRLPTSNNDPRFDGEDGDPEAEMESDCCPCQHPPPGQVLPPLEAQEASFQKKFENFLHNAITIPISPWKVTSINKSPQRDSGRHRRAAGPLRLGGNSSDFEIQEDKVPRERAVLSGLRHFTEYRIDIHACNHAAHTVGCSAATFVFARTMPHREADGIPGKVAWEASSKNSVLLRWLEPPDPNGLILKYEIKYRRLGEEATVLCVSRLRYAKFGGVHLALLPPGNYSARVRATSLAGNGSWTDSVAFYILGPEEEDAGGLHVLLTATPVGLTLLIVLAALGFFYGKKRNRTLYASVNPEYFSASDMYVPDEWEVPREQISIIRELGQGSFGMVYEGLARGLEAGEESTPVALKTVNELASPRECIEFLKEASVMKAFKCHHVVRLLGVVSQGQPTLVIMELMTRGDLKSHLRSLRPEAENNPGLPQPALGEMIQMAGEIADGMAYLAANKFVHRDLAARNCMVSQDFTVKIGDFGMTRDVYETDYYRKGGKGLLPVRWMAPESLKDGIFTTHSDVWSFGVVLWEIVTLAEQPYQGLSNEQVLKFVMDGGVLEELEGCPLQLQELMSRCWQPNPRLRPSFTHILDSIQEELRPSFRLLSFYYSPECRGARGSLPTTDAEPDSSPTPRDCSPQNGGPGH
Consider the following compounds; for each one, report its remaining activity at 1 µM.

Some entries whose results are on file:
COMPOUND: FC(F)c1nc2ccccc2n1-c1nc(N2CCOCC2)nc(N2CCOCC2)n1 [ZSTK474]
READING: 88%
--
COMPOUND: Nc1cc(C(F)(F)F)c(-c2cc(N3CCOCC3)nc(N3CCOCC3)n2)cn1 [Buparlisib]
READING: 100%
--
COMPOUND: Cn1c(=O)n(-c2ccc(C(C)(C)C#N)cc2)c2c3cc(-c4cnc5ccccc5c4)ccc3ncc21 [Dactolisib]
READING: 100%

We now examine a further compound.
Q) If you can, please state the reported remaining activity at 1 µM value of COc1ncc(-c2ccc3nccc(-c4ccnnc4)c3c2)cc1NS(=O)(=O)c1ccc(F)cc1F [Omipalisib] .
A) 93%

---

target: panel of 442 kinases (Homo sapiens); construct: purchased Ambit Biosciences (scanMAXX KINOMEscan); experiment: biochemical; type: binding; conditions: CAMK2D; 1 µM; read-out: % of control at 1 µM
Consider the following molecules; for each one, report its remaining activity at 1 µM.
Numbers only, in %.

SMILES: FC(F)c1nc2ccccc2n1-c1nc(N2CCOCC2)nc(N2CCOCC2)n1
READING: 88
--
SMILES: Cn1c(=O)n(-c2ccc(C(C)(C)C#N)cc2)c2c3cc(-c4cnc5ccccc5c4)ccc3ncc21
READING: 79
--
SMILES: Nc1cc(C(F)(F)F)c(-c2cc(N3CCOCC3)nc(N3CCOCC3)n2)cn1
READING: 100

We now examine a further molecule.
Q) If you can, please state the reported remaining activity at 1 µM value of `COc1ncc(-c2ccc3nccc(-c4ccnnc4)c3c2)cc1NS(=O)(=O)c1ccc(F)cc1F` .
A) 100

---

biological target: panel of 442 kinases (Homo sapiens, UniProt Q9UBE8); construct: purchased Ambit Biosciences (scanMAXX KINOMEscan); test: biochemical; format: binding; conditions: kinase NLK; 1 µM; read-out: % of control at 1 µM
Sequence (Q9UBE8 whole entry): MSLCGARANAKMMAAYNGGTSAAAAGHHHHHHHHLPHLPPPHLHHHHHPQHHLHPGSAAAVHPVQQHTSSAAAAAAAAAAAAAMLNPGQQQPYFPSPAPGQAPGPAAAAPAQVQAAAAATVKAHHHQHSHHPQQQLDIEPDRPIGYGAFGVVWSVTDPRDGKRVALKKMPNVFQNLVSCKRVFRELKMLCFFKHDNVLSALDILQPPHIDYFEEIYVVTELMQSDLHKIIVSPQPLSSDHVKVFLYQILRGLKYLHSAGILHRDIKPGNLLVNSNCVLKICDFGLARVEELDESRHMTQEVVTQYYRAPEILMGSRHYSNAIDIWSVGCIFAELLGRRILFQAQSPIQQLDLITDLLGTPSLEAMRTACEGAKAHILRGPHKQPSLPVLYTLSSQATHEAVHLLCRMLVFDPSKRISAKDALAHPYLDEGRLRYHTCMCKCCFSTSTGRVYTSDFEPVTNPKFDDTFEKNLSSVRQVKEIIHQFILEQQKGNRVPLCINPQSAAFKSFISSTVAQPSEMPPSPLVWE
Consider the following molecules; for each one, report its remaining activity at 1 µM.
Answers are plain numbers, in %.

Some entries whose results are on file:
SMILES: Cn1c(=O)n(-c2ccc(C(C)(C)C#N)cc2)c2c3cc(-c4cnc5ccccc5c4)ccc3ncc21
READOUT NAME: remaining activity at 1 µM
UNIT ABBREV: %
READING: 81

SMILES: COc1ncc(-c2ccc3nccc(-c4ccnnc4)c3c2)cc1NS(=O)(=O)c1ccc(F)cc1F
READOUT NAME: remaining activity at 1 µM
UNIT ABBREV: %
READING: 95

SMILES: FC(F)c1nc2ccccc2n1-c1nc(N2CCOCC2)nc(N2CCOCC2)n1
READOUT NAME: remaining activity at 1 µM
UNIT ABBREV: %
READING: 84

We now examine a further molecule.
Q) If you can, please state the reported remaining activity at 1 µM value of `Nc1cc(C(F)(F)F)c(-c2cc(N3CCOCC3)nc(N3CCOCC3)n2)cn1` .
A) 93

---

biological target: panel of 442 kinases (Homo sapiens); construct: purchased Ambit Biosciences (scanMAXX KINOMEscan); experiment: biochemical; type: binding; details: kinase KIT; 1 µM; read-out: % of control at 1 µM
READOUT NAME: remaining activity at 1 µM (%)
One number for each entry, in %.

Some entries whose results are on file:
SMILES: COc1ncc(-c2ccc3nccc(-c4ccnnc4)c3c2)cc1NS(=O)(=O)c1ccc(F)cc1F
STUDY SYSTEM: panel of 442 kinases (Homo sapiens)
UNIT ABBREV: %
remaining activity at 1 µM: 100
--
SMILES: FC(F)c1nc2ccccc2n1-c1nc(N2CCOCC2)nc(N2CCOCC2)n1
STUDY SYSTEM: panel of 442 kinases (Homo sapiens)
UNIT ABBREV: %
remaining activity at 1 µM: 85
--
SMILES: Cn1c(=O)n(-c2ccc(C(C)(C)C#N)cc2)c2c3cc(-c4cnc5ccccc5c4)ccc3ncc21
STUDY SYSTEM: panel of 442 kinases (Homo sapiens)
UNIT ABBREV: %
remaining activity at 1 µM: 63

Q) If you can, please state the reported remaining activity at 1 µM value of `Nc1cc(C(F)(F)F)c(-c2cc(N3CCOCC3)nc(N3CCOCC3)n2)cn1` .
A) 89
